Reference for the values: PubChem BioAssay (NCATS)

Test system: CP297
Experiment: qHTS profiling for inhibitors of Plasmodium falciparum proliferation (AID 504749); note: nearly all actives have a fitted effect of over 60% in size
Details: P. falciparum in erythrocytes, SYBR Green DNA, 72 h; series mostly up to 28.7 µM
Inconclusive results are not listed. The source made the active and inactive calls. Calls come from the whole dose curve; as a rule, active = well fitted inhibition curve with a large enough effect; inconclusive = small, poorly fitted or top-dose-only effect; inactive = flat fitted curve, though single readings scatter.
Write down one outcome, taken from active, inactive

[[record]]
compound = "O=C1c2ccccc2C(=O)c2c1ccc(O)c2O"
class_label = "inactive"

[[record]]
compound = "CC(C)[C@H](N)C(=O)OCC(CO)OCn1cnc2c(=O)[nH]c(N)nc21 (some centres undefined)"
class_label = "inactive"

[[record]]
compound = "CCCCC(CC)CCC(CC(C)C)OS(=O)(=O)O (centres undefined)"
class_label = "inactive"

[[record]]
compound = "COc1ccccc1N1CCN(CCCC(=O)c2ccc(F)cc2)CC1"
class_label = "inactive"

[[record]]
compound = "C[C@H](O)CN(C)C"
class_label = "inactive"


### Prompt Entry CCN(CC)CCCC(C)Nc1cc(/C=C/c2ccccc2Cl)nc2cc(Cl)ccc12 (centres undefined) : call = ?
### Response active

### Prompt Next: CCOc1ccc(NC(=S)Nc2ccc(OCC)cc2)cc1
### Response inactive

### Prompt Next: C=Cc1ccc(S(=O)(=O)O)cc1
### Response inactive

### Prompt Next: Cc1cc(C)c(NC(=O)C[C@H](CC(=O)O)c2cccc3ccccc23)c(C(=O)N2CCC3(CCCC3)CC2)c1
### Response inactive

### Prompt Next: COc1ccc2nc(NC(=O)Nc3ccccc3)sc2c1
### Response inactive

### Prompt Next: N=C(N)c1ccc(/C=C/c2ccc(C(=N)N)cc2O)cc1
### Response active

### Prompt Next: O=C(O)c1ccc(NC(=O)[C@H](Cc2ccc(O)cc2)NC(=O)c2ccccc2)cc1
### Response inactive

### Prompt Next: CCCCCCCCCCCCCCCCCC(=O)OCC(C)O (centres undefined)
### Response inactive

### Prompt Next: O=P(O)(O)OP(=O)(O)O
### Response inactive
